Listing: log10 of IC50 of selected compounds
Biological target: hMC-4R (Homo sapiens, UniProt P32245)
Construct: expressed in transfected cells; host or cells: HEK293
Sequence (P32245 whole entry): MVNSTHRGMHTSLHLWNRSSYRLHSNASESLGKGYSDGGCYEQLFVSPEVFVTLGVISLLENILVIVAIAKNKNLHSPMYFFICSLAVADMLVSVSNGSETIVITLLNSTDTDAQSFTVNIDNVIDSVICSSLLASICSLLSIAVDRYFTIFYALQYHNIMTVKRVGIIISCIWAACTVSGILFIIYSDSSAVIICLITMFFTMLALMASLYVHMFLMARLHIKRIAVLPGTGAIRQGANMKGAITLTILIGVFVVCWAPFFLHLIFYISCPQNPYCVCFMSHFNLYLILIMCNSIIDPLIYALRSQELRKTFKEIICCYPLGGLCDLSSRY
Assay: Membrane binding assay (fluorescence polarization, competition with fluorescence labeled NDP-alpha-MSH)
Conditions: HEK293 cell membrane preparations expressing human melanocortin receptors; 5 h at room temperature
Values reflect log10 of reported IC50 (nM).

Some solved entries appear below for comparison.
Compound	Measured Metric	Observed Measurement
CCC(CN1CCCC1)Oc1cc(Cl)ccc1C1CCN(C(=O)[C@@H](Cc2ccc(Cl)cc2Cl)N2CCCC2)CC1 (stereo partly drawn)	log10 of IC50	0.38
O=C(C(Cc1ccc(Cl)cc1Cl)N1CCCCC1)N1CCC(c2ccc(Cl)cc2OCCN2CCCC2)CC1 (stereo not drawn)	log10 of IC50	1.79
Cc1ccn(C(Cc2ccc(Cl)cc2Cl)C(=O)N2CCC(c3ccc(Cl)cc3OCCN3CCCC3)CC2)n1 (stereo not drawn)	log10 of IC50	2.34

Query: Look up log10 of IC50 for this compound: CCC(COc1cc(Cl)ccc1C1CCN(C(=O)[C@@H](Cc2ccc(Cl)cc2Cl)N2CCCC2)CC1)N1CCCC1 (stereo partly drawn)
Reply: 0.32

Query: // repeat for O=C(C(Cc1ccc(Cl)cc1Cl)n1cncn1)N1CCC(c2ccc(Cl)cc2OCCN2CCCC2)CC1 (stereo not drawn) and report
Reply: 0.89

Query: // repeat for O=C(C(Cc1ccc(Cl)cc1Cl)N1CCOCC1)N1CCC(c2ccc(Cl)cc2OCCN2CCCC2)CC1 (stereo not drawn) and report
Reply: 2.00

Query: // repeat for CCC(Cc1cc(Cl)ccc1C1CCN(C(=O)C(Cc2ccc(Cl)cc2Cl)n2cncn2)CC1)CN1CCCC1 (stereo not drawn) and report
Reply: 1.23

Query: // repeat for O=C(C(Cc1ccc(Cl)cc1Cl)N1CCCCC1)N1CCC(c2cc(F)ccc2CCN2CCCC2)CC1 (stereo not drawn) and report
Reply: 2.26

Query: // repeat for O=C(C(Cc1ccc(Cl)cc1Cl)Nc1cccnc1)N1CCC(c2ccc(Cl)cc2OCCN2CCCC2)CC1 (stereo not drawn) and report
Reply: 0.77
